# targetOfAssay: Complement C5 (Homo sapiens, UniProt P01031;P01031 P01031:19-673,P01031:678-1676)
# assayDetails: inhibition; inhibition of C5a release, zymosan-treated human serum
# conditionLabel: tags: Quidel
pKi: −log10 of the molar value.
recordedMetric: pKi

pKi in this record for C6 (ssRNA, 2'-F pyrimidines) RNA: GGGAGGACGAUGCGGUCUCAUGCGUCGAGUGUGAGUUUACCUUCGUCAGACGACUCGCCCGA : ~7.00
